Just for reference, patent US8148367B2 is where these values come from.

# reported pIC50; entries follow
Biological target: Recombinant human renin (Homo sapiens)
Construct: isolate the active form (residues 67-406); made in house; host or cells: FreeStyle 293-F cells, transient expression of pcDNA3.1(+)/hREN
Sequence (P00797 67-406): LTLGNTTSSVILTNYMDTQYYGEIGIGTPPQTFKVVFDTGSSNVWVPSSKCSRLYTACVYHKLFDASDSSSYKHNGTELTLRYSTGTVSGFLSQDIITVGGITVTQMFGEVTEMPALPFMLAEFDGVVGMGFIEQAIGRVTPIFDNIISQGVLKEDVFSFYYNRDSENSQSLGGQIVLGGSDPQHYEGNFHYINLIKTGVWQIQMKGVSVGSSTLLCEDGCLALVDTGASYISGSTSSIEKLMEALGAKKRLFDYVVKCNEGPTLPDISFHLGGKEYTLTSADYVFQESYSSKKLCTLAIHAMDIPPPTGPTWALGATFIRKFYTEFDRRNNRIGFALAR
Experiment: In vitro enzymatic activity assay of renin inhibitors (fluorescence, QXL520/HiLyteFluo488 peptide substrate)
Format: biochemical
Details: recombinant human renin 3 nM, 1 μM substrate, pre-incubated 10 minutes at 37° C., incubation one hour, pH 7.4, 5% DMSO; read-out: IC50 of Exemplified Compounds Against Renin
pIC50: −log10 of the molar value.

See these solved cases before continuing.
Compound: CC(C)CC(=O)NCCn1c(C(=O)N2CCNCC2)c(-c2ccccc2)n(-c2cccc(N3CCOCC3)c2)c1=O [Example 178]
pIC50: < 6.00
--
Compound: O=C(c1[nH]c(=O)n(-c2cccc(N3CCOCC3)c2)c1-c1ccccc1)N1CCNCC1 [Example 22]
pIC50: 6.00 to 6.30
--
Compound: CC(C)CC(=O)NCCn1c(C(=O)N2CCNCC2)c(-c2ccccc2)n(C2CCCC[C@@H]2O)c1=O (stereo partly drawn) [Example 173]
pIC50: < 6.00
--
Compound: COCCCOc1cccc(-n2c(-c3ccccc3)c(C(=O)N3CCNCC3)n(CCNC(=O)CC(C)C)c2=O)c1 [Example 184]
pIC50: < 6.00
--
Compound: O=C(c1c(-c2ccccc2)n(-c2ccccc2)c(=O)n1Cc1ccc2ccccc2c1)N1CCNCC1 [Example 84]
pIC50: 6.30 to 7.00
--
Compound: Cc1ccccc1-n1c(-c2ccccc2)c(C(=O)N2CCNCC2)n(CCNC(=O)NC(C)C)c1=O [Example 216]
pIC50: < 6.00
--
Compound: O=C(c1c(-c2ccccc2)n(-c2cccc(N3CCOCC3)c2)c(=O)n1Cc1cccc(Oc2ccccc2)c1)N1CCNCC1 [Example 74]
pIC50: > 7.00
--
Compound: O=C(c1[nH]c(=O)n(-c2ccc3c(c2)NCCC3)c1-c1ccccc1)N1CCNC[C@H]1Cc1ccccc1 [Example 132]
pIC50: > 7.00
--
Compound: O=C(c1[nH]c(=O)n(CC2(O)CCCCC2)c1-c1ccccc1)N1CCNC[C@H]1Cc1ccccc1 [Example 130]
pIC50: > 7.00
--
Compound: COc1cccc(NC(=O)NCCCn2c(C(=O)N3CCNCC3)c(-c3ccccc3)n(-c3ccccc3C)c2=O)c1 [Example 226]
pIC50: 6.30 to 7.00

Please supply the value of reported pIC50 for the item O=C(c1c(-c2ccccc2)n(C2CCCN(S(=O)(=O)c3ccccc3)C2)c(=O)n1Cc1ccccc1)N1CCNCC1 (stereo not drawn) [Example 100] 6.00 to 6.30

Please supply the value of reported pIC50 for the item COc1cc(Cn2c(C(=O)N3CCNCC3)c(-c3ccccc3)n(-c3ccccc3)c2=O)cc(OC)c1 [Example 86] 6.30 to 7.00

Please supply the value of reported pIC50 for the item O=C(c1[nH]c(=O)n(-c2ccccc2[N+](=O)[O-])c1-c1ccccc1)N1CCNC[C@H]1Cc1ccccc1 [Example 117] > 7.00

Please supply the value of reported pIC50 for the item O=C(c1[nH]c(=O)n(-c2ccc3c(c2)NCC3)c1-c1ccccc1)N1CCNC[C@H]1Cc1ccccc1 [Example 136] > 7.00

Please supply the value of reported pIC50 for the item CC(C)CC(=O)NCCCn1c(C(=O)N2CCNCC2)c(-c2ccccc2)n(C2CCCC[C@@H]2O)c1=O (stereo partly drawn) [Example 172] < 6.00
